Reference for the values: PubChem BioAssay (EPA / NIEHS)

Molecular target: Cellular tumor antigen p53 (Homo sapiens) (UniProt P04637)
Sequence (P04637 whole entry, looked up): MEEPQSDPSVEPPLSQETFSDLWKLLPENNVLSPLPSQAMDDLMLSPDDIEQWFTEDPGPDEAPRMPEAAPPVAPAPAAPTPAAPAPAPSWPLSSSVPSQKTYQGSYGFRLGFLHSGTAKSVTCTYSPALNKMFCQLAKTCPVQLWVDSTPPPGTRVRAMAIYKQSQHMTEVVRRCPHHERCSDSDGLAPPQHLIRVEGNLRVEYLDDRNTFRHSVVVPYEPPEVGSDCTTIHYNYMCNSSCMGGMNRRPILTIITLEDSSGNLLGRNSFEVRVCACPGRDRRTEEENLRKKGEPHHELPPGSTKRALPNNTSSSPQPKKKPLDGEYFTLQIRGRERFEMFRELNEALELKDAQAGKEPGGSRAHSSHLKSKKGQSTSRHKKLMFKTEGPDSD
Assay: TOX21_p53_BLA_p4_ratio: Tox21 HCT-116 p53 Agonism Beta-lactamase Assay, Ratio, Phase 4 (AID 2283601)
Results filed as inconclusive are left out. Activity calls are given as the source filed them. Rule for the calls: active = hit-call score of the fitted dose curve at least 0.9, where 1 is the maximum; inconclusive = response in the unintended direction; inactive = score below 0.9.
Write down one outcome, taken from active, inactive

Field: example entries. Status: answers known.
Molecule | Answer Label
CCCCOc1ccc(C(=O)CCN2CCCCC2)cc1 | inactive
CC[C@H](C)C(=O)O[C@H]1CCC=C2C=C[C@H](C)[C@H](CC[C@@H]3C[C@@H](O)CC(=O)O3)[C@H]21 | inactive
CCCCCCCCCCCCCCCCCC(=O)[O][Al] | inactive
O=C(C=Cc1ccc(O)c(O)c1)O[C@@H]1C[C@@](OC(=O)C=Cc2ccc(O)c(O)c2)(C(=O)O)C[C@@H](O)[C@@H]1O | inactive
CCC(=C(CC)c1ccc(O)cc1)c1ccc(O)cc1 | active
CC(C(=O)O)c1ccc(/C=C2\CCCCC2=O)cc1 (configuration not stated) | inactive
CCCCC(C)C(=O)O (configuration not stated) | inactive
CC(=O)Oc1ccc(C(=C2CCCCC2)c2ccc(OC(C)=O)cc2)cc1 | inactive

Request: Check the results log: what was the call for COc1cccc(N(C)C(=S)Oc2ccc3c(c2)CCCC3)n1 ?
Response: inactive

Request: Check the results log: what was the call for C[N+]1(C)[C@@H]2CC(OC(=O)C(O)(c3cccs3)c3cccs3)C[C@H]1[C@@H]1O[C@@H]12 (some centres not stated) ?
Response: inactive

Request: Check the results log: what was the call for O=[N+]([O-])c1ccc(Oc2ccc(N=C=S)cc2)cc1 ?
Response: active

Request: Check the results log: what was the call for O=C(O)CCCl ?
Response: inactive
